- experimental_system: rabbit fast skeletal muscle myosin
- Construct: native rabbit fast skeletal myofibrils, full length, with native light chains and thin filaments
- assay_details: myofibril ATPase assay
- condition_context: 75% calcium activation (pCa75); up to 40 μM tested
pIC50: −log10 of the molar value.
parameter_measured: pIC50

Look up pIC50: COc1ccc(C2(NCc3c[nH]nc3-c3cccs3)CC2)cc1 [KNX-002]
< 4.41
